ASSAY_OVERVIEW: qHTS for Inhibitors of Inflammasome Signaling: IL-1-beta AlphaLISA Primary Screen; note: % is set by controls: 0 for no effect and ±100 for the full control effect
RUN_PARAMETERS: THP-1 LPS/ATP IL-1B secretion, 16 h; at 57.5 µM, active compounds read low
About 17,000 (4.7%) of roughly 360,000 compounds were called active. About 5% were inconclusive and are not listed. The sample as a whole holds a higher share of actives than the screen did.
Each record here notes measured activity change.
Provide the reading as a plain figure in %.

Take a look at these entries with their results.
> print(dat)
                                   compound  endpoint.value
1  CCCCCCN1CCN(C2CN(Cc3cn(Cc4ccc(F)cc4)nn3)S(=O)(=O)C2)CC1 (stereo not given)            18.3
2  CCCCc1ccc(S(=O)(=O)NC(=O)C2(C)CCN2C(=O)c2c(C)noc2C)cc1 (stereo not given)            24.9
3  Cc1ccc(C(=O)CN2C(=O)NC3(CCc4ccccc43)C2=O)c(C)c1 (stereo not given)            -6.4
4          Cc1c(C(C)(C)O)[nH]c2ccc(C#N)cc12            38.6

Problem: Which activity change value is on record for "CCCCc1nc2ccc(F)cc2cc1C" ?
Solution: 8.78

Problem: Which activity change value is on record for Cc1ccc(C(CNC(=O)Nc2ccccc2)N2CCN(C)CC2)cc1 (stereo not given) ?
Solution: -19.3

Problem: Which activity change value is on record for COc1cc(NC(=O)C2=C(C)OCCS2)c(Cl)cc1C(=O)NCCCN1CCCC(C)C1 (stereo not given) ?
Solution: -28.6

Problem: Which activity change value is on record for "CCN(CC)S(=O)(=O)c1ccc(NC(=O)c2cccnc2Cl)c(NC(=O)c2cccnc2Cl)c1" ?
Solution: -102

Problem: Which activity change value is on record for CCOC(=O)C1CCCN(C(=O)c2ccc(C)c(S(=O)(=O)N3CCCCC3)c2)C1 (stereo not given) ?
Solution: 4.44

Problem: Which activity change value is on record for "COC(=O)c1ccccc1NS(=O)(=O)c1ccc2[nH]c(=O)[nH]c2c1" ?
Solution: -16.3

###

ASSAY_OVERVIEW: qHTS for Inhibitors of Inflammasome Signaling: IL-1-beta AlphaLISA Primary Screen
RUN_PARAMETERS: THP-1 LPS/ATP IL-1B secretion, 16 h; at 57.5 µM, active compounds read low
Out of some 360,000 compounds screened, about 17,000 (4.7%) were called active. Not shown: some 5% with an inconclusive outcome. What follows is part of a selection rich in actives, with near analogues and random picks from the rest.
Each record here notes measured activity change.

Take a look at these entries with their results.
> print(dat)
                                   compound     endpoint.value
1  CCC(C)CN1C(=O)CN(S(C)(=O)=O)CC1(C)C(=O)Nc1ccc2c(c1)OCCO2 (stereo not given)  -19.9% (inactive)
2  CCN(CC(=O)Nc1c(F)cccc1F)C(=O)c1ccc(S(=O)(=O)N2CCCCC2)cc1  -1.87% (inactive)
3  CCOC(=O)[C@]12CCC=C1N(Cc1ccco1)C(=O)[C@H](CC(=O)N1CCSCC1)C2  -5.81% (inactive)
4    COc1ccc(S(=O)(=O)N(C)CC(=O)N2CCCC2)cc1  -1.23% (inactive)
5  CN(C)CCCN(C(=O)c1ccc(S(=O)(=O)N2CCCCCC2)cc1)c1nc2cc3c(cc2s1)OCCO3    -66.5% (active)

Problem: Which activity change value is on record for "C[C@H]1Cn2cnc(C(=O)N[C@@H](Cc3c[nH]c4ccccc34)C(=O)OC(C)(C)C)c2C(=O)N1" ?
Solution: 33.4% (inactive)

Problem: Which activity change value is on record for "CCc1ccc2nc(N(CCCN(C)C)C(=O)c3ccc4c(c3)OCCO4)sc2c1" ?
Solution: -61.9% (active)

Problem: Which activity change value is on record for "CN(C)C(=O)c1coc2nc3ccccc3nc12" ?
Solution: 25.5% (inactive)

###

ASSAY_OVERVIEW: qHTS for Inhibitors of Inflammasome Signaling: IL-1-beta AlphaLISA Primary Screen
RUN_PARAMETERS: THP-1 LPS/ATP IL-1B secretion, 16 h; at 57.5 µM
Screen size: about 360,000 compounds; about 17,000 (4.7%) were called active. Roughly 5% stayed inconclusive and do not appear here. Cut-off read from the data, not from the text of the source: active = activity change below about -50%; inconclusive = mostly about -30% to -49%; inactive = weaker than that. What follows is part of a selection rich in actives, with near analogues and random picks from the rest.
Response enum: y for active, n for inactive

> print(dat)
                                   compound  category
1     Cc1cc2[nH]ncc2cc1NC(=S)NC(=O)c1ccccc1         n
2  O=S(=O)(Cc1cc(Cl)nc(-c2cccnc2)n1)c1ccccc1         y
3     Cc1cccc(NC(=O)NC(=S)NC(=O)c2ccccc2)c1         n
4         CCn1c(SCC(=O)N2CCCC2=O)nc2ccccc21         n
5          Oc1c(Cl)cc(Cl)cc1/C=N/c1ncn[nH]1         n
6  COc1ccc(OC)c(-n2cc3c(=O)n(C)c(=O)n(C)c3c2)c1         n
7            CCN(C(=O)c1ccc(Br)cc1)c1ccccc1         n
8    O=S(=O)(NCCc1csc(-c2ccccc2)n1)c1cccnc1         n

Problem: // return assay outcome for O=S1(=O)CC(N2CCSCC2)CN1Cc1cn(Cc2cccc(Cl)c2)nn1 (stereo not drawn)
Solution: n

Problem: // return assay outcome for "C=CCn1c(Cn2nnc3ccccc32)nnc1SCC(=O)N/N=C/c1cc(Br)cc(OC)c1O"
Solution: n

###

ASSAY_OVERVIEW: qHTS for Inhibitors of Inflammasome Signaling: IL-1-beta AlphaLISA Primary Screen
RUN_PARAMETERS: THP-1 LPS/ATP IL-1B secretion, 16 h; at 57.5 µM, active compounds read low
In all, about 360,000 compounds went through this assay and about 17,000 (4.7%) were called active. Roughly 5% stayed inconclusive and do not appear here. What follows is part of a selection rich in actives, with near analogues and random picks from the rest.
Each record here notes measured activity change.
Provide the reading as a plain figure in %.

Take a look at these entries with their results.
> print(dat)
                                   molecule  endpoint.value
1    O=C(Nc1ccc(F)cc1)N1CCN(c2ccc(F)cc2)CC1            2.96
2  O=[N+]([O-])c1ccc(CN2CC(N3CC=CC3)CS2(=O)=O)cc1 (stereo unspecified)           -24.5
3  O=C(CN1CCN(c2ccc(O)cc2)CC1)Nc1ccc(-c2ccccc2)cc1            12.4

Problem: Which activity change value is on record for COc1ccc(C(O)C(O)(C(=O)OC(C)C)c2ccc(C)cc2)cc1 (stereo unspecified) ?
Solution: -21

Problem: Which activity change value is on record for Cc1nn(C(C)C(=O)NCCC2=CCCCC2)c(=O)c2nn(-c3ccccc3)c(C)c12 (stereo unspecified) ?
Solution: 14.5

Problem: Which activity change value is on record for "O=C(c1ccc2c(c1)C(=O)N(Cc1ccncc1)C2=O)N1CCN(S(=O)(=O)c2ccc(OC(F)(F)F)cc2)CC1" ?
Solution: 8.07

Problem: Which activity change value is on record for "O=[N+]([O-])c1ccc(C=NN=Cc2ccc([N+](=O)[O-])cc2)cc1" ?
Solution: -8.06

Problem: Which activity change value is on record for O=C(c1cc(C2CCCCN2S(=O)(=O)c2ccccc2)on1)N1CCOCC1 (stereo unspecified) ?
Solution: 0

Problem: Which activity change value is on record for "CN(C)CCNC(=O)Nc1cccc(Cl)c1Cl" ?
Solution: 2.19

Problem: Which activity change value is on record for "c1ccc2c(C[n+]3csc4ccccc43)cccc2c1" ?
Solution: -14.6

Problem: Which activity change value is on record for "Cc1cccc(-n2ncc(Cl)c(Cl)c2=O)c1" ?
Solution: -100

Problem: Which activity change value is on record for CCc1ccc(OCC2c3cc(OC)c(OC)cc3CCN2C(C)=O)cc1 (stereo unspecified) ?
Solution: -10.3

Problem: Which activity change value is on record for "CCCCc1nccn1CCn1ccnc1CCCC" ?
Solution: -1.41

###

ASSAY_OVERVIEW: qHTS for Inhibitors of Inflammasome Signaling: IL-1-beta AlphaLISA Primary Screen
RUN_PARAMETERS: THP-1 LPS/ATP IL-1B secretion, 16 h; at 57.5 µM
The whole screen tested about 360,000 compounds, of which about 17,000 (4.7%) were called active. Inconclusive results (about 5%) are left out. Rule as the data show it: active = activity change below about -50%; inconclusive = mostly about -30% to -49%; inactive = weaker than that. Only a selection was taken, and actives are over-represented in it overall.
Response enum: true (1) for active, false (0) for inactive

> print(dat)
                                   compound   category
1  COc1ccc(NC(=O)CSc2nnnn2-c2cccc(OC)c2)cc1  false (0)
2  CCOC(=O)C1(C)CCCN(C(=O)c2cccc(Cl)c2)C1 (centres undefined)  false (0)

Problem: // return assay outcome for "O=C(CSc1cccc2cccnc12)N/N=C/c1cccnc1"
Solution: true (1)

Problem: // return assay outcome for "O=C(C(Cl)Cl)N1CCN(c2ccccn2)CC1"
Solution: false (0)

Problem: // return assay outcome for "COC(=O)c1ccccc1N=NNc1ccc([N+](=O)[O-])cc1"
Solution: false (0)

Problem: // return assay outcome for "C[C@@H]1CN([C@@H](C)CO)C(=O)c2c(c3ccccc3n2C)-c2ccccc2CO[C@H]1CN(C)C(=O)C1CC1"
Solution: false (0)

Values compiled from PubChem BioAssay AID743279.
